Source listed as a melting point compilation (Tetko et al.; mined from patent text by program, amines drawn as free bases though some values may be those of a salt).

melting point overview

# count of solved cases: 3
{"columns": ["compound", "melting point"],
 "data": [
  ["CCn1c(=O)c(C)cc2cnc(Nc3ccc(N4CCN(C)CC4)cc3)nc21", "198 to 200 °C"],
  ["N#Cc1oc(-c2ccc(Cl)cc2)c2ccccc12", "128 to 130 °C"],
  ["CSc1ccc2ccc(N)nc2n1", "158 °C"]
]}

Given the compound `O=C(O)CNC(=O)c1nc2ccc(OCC(F)(F)C(F)(F)C(F)(F)C(F)F)cc2cc1O` , what is its reported melting point?
170 to 172 °C

Returns the measured melting point for the input compound. Input: CCCCCCC(c1ccc2[nH]c(-c3ccc(F)cc3)nc2c1)n1ccnc1 (centres undefined)
122 °C

Quick one: melting point for `CNS(=O)(=O)c1ccccc1Nc1nc(Nc2ccc3c(c2)CCCC(=O)N3CC(=O)O)ncc1Cl` ?
192 to 195 °C

Reported melting point for `COc1cc(C2(CNC(=O)Nc3c(C(C)C)cccc3C(C)C)CCC2)cc(OC)c1OC` : what is it?
145 to 147 °C

Find the recorded melting point belonging to `COc1ccc2c3c(c(=O)oc2c1)CN(CCN1CC2CCC1CC2)CC3` and report it.
112 to 113 °C

Data request, read-out melting point, for `O=C(O)Cc1c(Cl)nc(-c2ccc(O)cc2)n1Cc1ccccc1`
140 to 145 °C
